B1: OR4K15 (parent)
chain: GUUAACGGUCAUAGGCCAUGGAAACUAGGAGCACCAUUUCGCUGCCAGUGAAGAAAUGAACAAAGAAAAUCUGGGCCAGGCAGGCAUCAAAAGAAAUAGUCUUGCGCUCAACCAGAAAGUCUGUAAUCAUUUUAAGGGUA

Variants of: B1
Method summary: self-cleavage, relative activity (ratio to wild type); higher = more cleavage; in vitro, sequencing; the parent is a self-cleaving ribozyme
Quantity name: self-cleavage
Please respond with just the number, no unit label.

Sample records with self-cleavage:
# Var, self-cleavage
rows = [
    ("U103C U120A", 1.55),
    ("U39C C61U", 2.41),
]

# context switch: different variant, same self-cleavage
Query block: Name the recorded self-cleavage for C17A A117G .
Result block: 1.53
